# τS, fluorescence lifetime annotations
Test: UV-vis absorption, fluorescence emission, absolute fluorescence quantum yield and fluorescence lifetime
Type: physicochemical
Conditions: in dichloromethane
Experimental: First, the UV–vis absorption and fluorescence emission spectra of the series of compounds were measured and analyzed. […] Concurrently, the Stokes shifts of all four compounds were more than 60 nm (Figure 2a,b and Table 1), which could effectively improve the signal-to-noise ratio (SNR) of fluorescence compared to the ordinary TCy7. The fluorescence lifetimes of all four compounds were within 2 ns, indicating no delayed fluorescence generation (Figure 2c and Table 1). […]

{"columns": ["Molecule", "τS, fluorescence lifetime, ns"],
 "data": [
  ["CCN1/C(=C/C=C/C=C/C=C/c2sc3ccccc3[n+]2CC)Sc2ccccc21 [TCy7, reference compound]", 1.54],
  ["CCN1/C(=C/C=C2\\C=C(c3ccccc3)C=C(/C=C/c3sc4ccccc4[n+]3CC)C2=O)Sc2ccccc21", 1.90],
  ["CCOC(=O)C1=C/C(=C\\C=C2/Sc3ccccc3N2CC)C(=O)C(/C=C/c2sc3ccccc3[n+]2CC)=C1", 1.97],
  ["CCN1/C(=C/C=C2\\C=C(C=O)C=C(/C=C/c3sc4ccccc4[n+]3CC)C2=O)Sc2ccccc21", 1.82],
  ["CCN1/C(=C/C=C2\\C=C(C)C=C(/C=C/c3sc4ccccc4[n+]3CC)C2=O)Sc2ccccc21", 1.70]
]}

---

Tested on: HepG2 cells
Experiment: MTT cytotoxicity assay, HepG2
Format: cell-based, human
Details: Homo sapiens, HepG2, light or radiation study, HepG2, 660 nm irradiation 12 J/cm^2
pIC50: −log10 of the molar value.
# pIC50 annotations

{"columns": ["Molecule", "System", "pIC50"],
 "data": [
  ["CCOC(=O)C1=C/C(=C\\C=C2/Sc3ccccc3N2CC)C(=O)C(/C=C/c2sc3ccccc3[n+]2CC)=C1", "HepG2 cells", "~6.52"],
  ["CCN1/C(=C/C=C2\\C=C(c3ccccc3)C=C(/C=C/c3sc4ccccc4[n+]3CC)C2=O)Sc2ccccc21", "HepG2 cells", "~6.52"],
  ["CCN1/C(=C/C=C2\\C=C(C)C=C(/C=C/c3sc4ccccc4[n+]3CC)C2=O)Sc2ccccc21", "HepG2 cells", "~6.05"],
  ["CCN1/C(=C/C=C2\\C=C(C=O)C=C(/C=C/c3sc4ccccc4[n+]3CC)C2=O)Sc2ccccc21", "HepG2 cells", "~5.74"],
  ["C=Cc1c(C)c2cc3nc(c(CC(=O)O)c4[nH]c(cc5nc(cc1[nH]2)C(C)=C5CC)c(C)c4C(=O)O)[C@@H](CCC(=O)O)[C@@H]3C [Ce6, chlorin e6, reference compound]", "HepG2 cells", 5.46]
]}

---

Assay: UV-vis absorption, fluorescence emission, absolute fluorescence quantum yield and fluorescence lifetime
Assay type: physicochemical
Conditions: in dichloromethane
# Δλ, Stokes shift annotations

{"columns": ["Compound", "Unit Tag", "Δλ, Stokes shift"],
 "data": [
  ["CCN1/C(=C/C=C2\\C=C(c3ccccc3)C=C(/C=C/c3sc4ccccc4[n+]3CC)C2=O)Sc2ccccc21 [QTCy7-Ph]", "nm", 72],
  ["CCOC(=O)C1=C/C(=C\\C=C2/Sc3ccccc3N2CC)C(=O)C(/C=C/c2sc3ccccc3[n+]2CC)=C1 [QTCy7-Ac]", "nm", 67],
  ["CCN1/C(=C/C=C/C=C/C=C/c2sc3ccccc3[n+]2CC)Sc2ccccc21 [TCy7, reference compound]", "nm", 23],
  ["CCN1/C(=C/C=C2\\C=C(C)C=C(/C=C/c3sc4ccccc4[n+]3CC)C2=O)Sc2ccccc21 [QTCy7-Me]", "nm", 66],
  ["CCN1/C(=C/C=C2\\C=C(C=O)C=C(/C=C/c3sc4ccccc4[n+]3CC)C2=O)Sc2ccccc21 [QTCy7-CHO]", "nm", 60]
]}
